# Test system: PTP1B
# protocol: Phosphatase activity of PTP1B constructs against pNPP (enzyme assay)
# Format: biochemical, human
# condition_label: pNPP substrate, pH 7.5, 0.015 μM PTP1B (FIG. 27, 32A, 32B)
recorded_metric: kcat

{"molecule": "PTP1BF196A: PTP1B1-301 mutant with mutation in the α3 helix (protein, UniProt P18031 1-301, looked up, variant F196A) MEMEKEFEQIDKSGSWAAIYQDIRHEASDFPCRVAKLPKNKNRNRYRDVSPFDHSRIKLHQEDNDYINASLIKMEEAQRSYILTQGPLPNTCGHFWEMVWEQKSRGVVMLNRVMEKGSLKCAQYWPQKEEKEMIFEDTNLKLTLISEDIKSYYTVRQLELENLTTQETREILHFHYTTWPDFGVPESPASFLNFLAKVRESGSLSPEHGPVVVHCSAGIGRSGTFCLADTCLLLMDKRKDPSSVDIKKVLLEMRKFRMGLIQTADQLRFSYLAVIEGAKFIMGDSSVQDQWKELSHEDLEP", "measured": "4.2 ± 0.2 s⁻¹"}

Now examine the next entry.
stdin: Fill blank: measured kcat of the molecule PTP1BS295A/E297A: PTP1B1-301 double mutant in the α7 helix (protein, UniProt P18031 1-301, looked up, variant S295A E297A) MEMEKEFEQIDKSGSWAAIYQDIRHEASDFPCRVAKLPKNKNRNRYRDVSPFDHSRIKLHQEDNDYINASLIKMEEAQRSYILTQGPLPNTCGHFWEMVWEQKSRGVVMLNRVMEKGSLKCAQYWPQKEEKEMIFEDTNLKLTLISEDIKSYYTVRQLELENLTTQETREILHFHYTTWPDFGVPESPASFLNFLFKVRESGSLSPEHGPVVVHCSAGIGRSGTFCLADTCLLLMDKRKDPSSVDIKKVLLEMRKFRMGLIQTADQLRFSYLAVIEGAKFIMGDSSVQDQWKELAHADLEP is ____.
stdout: 2.6 ± 0.13 s⁻¹

Reference source for all entries: patent US20160046684A1
